Source: PubChem BioAssay (EPA / NIEHS)

Read-out: Intercellular Adhesion Molecule 1 (ICAM1), ICAM1 (gene 3383)
assay.summary: LTEA_HepaRG_ICAM1: Life Technologies and Expression Analysis (LTEA) Assay for Intercellular Adhesion Molecule 1 (ICAM1) using HepaRG (AID 2283507)
condition.description: mRNA level, 48 h; actives raise or lower the signal
Active and inactive are the calls of the source. Rule for the calls: active = hit-call score of the fitted dose curve at least 0.9, where 1 is the maximum; inactive = score below 0.9.
Pick one and only one: 1 (yes) (active), 0 (no) (inactive)

Asked: Test call, this compound: `CCCCCCCCCCCCCCCO`
Given back: 0 (no)

Asked: Test call, this compound: `COc1cccc(-c2ccc(/C=C\CN3CCCCCC3)cc2Cl)c1`
Given back: 1 (yes)

Asked: Test call, this compound: `CCNc1ccccc1`
Given back: 0 (no)

Asked: Test call, this compound: `CC(C)(O)c1coc(S(=O)(=O)NC(=O)Nc2c3c(cc4c2CCC4)CCC3)c1`
Given back: 0 (no)

Asked: Test call, this compound: `Cc1[nH]cnc1C[C@H]1CCc2c(C)c3ccccc3n2C1=O`
Given back: 1 (yes)

Asked: Test call, this compound: `O=C(OC[C@H]1O[C@@H](OC(=O)c2cc(O)c(O)c(OC(=O)c3cc(O)c(O)c(O)c3)c2)[C@H](OC(=O)c2cc(O)c(O)c(OC(=O)c3cc(O)c(O)c(O)c3)c2)[C@@H](OC(=O)c2cc(O)c(O)c(OC(=O)c3cc(O)c(O)c(O)c3)c2)[C@@H]1OC(=O)c1cc(O)c(O)c(OC(=O)c2cc(O)c(O)c(O)c2)c1)c1cc(O)c(O)c(OC(=O)c2cc(O)c(O)c(O)c2)c1`
Given back: 1 (yes)

Asked: Test call, this compound: `CCCN(C1CCN(C(=O)C2CCNCC2)CC1)[C@@H]1CCc2ccc(OC)cc2C1`
Given back: 1 (yes)

Asked: Test call, this compound: `CCN(C(=O)c1cc(C)cc(OC[C@H](C)Nc2ccncc2)c1)C(C)C`
Given back: 0 (no)
